Examples of molecules with documented Ki follow.
# targetDesc: Glutamate NMDA receptor
# assayOverview: Displacement of [3H]CGP 39653 from NMDA receptor in Sprague-Dawley rat brain synaptic membrane after 60 mins by scintillation counting

molecule: N[C@@H](C[C@H]1CC(C(=O)O)=NO1)C(=O)O (racemic)
Ki: 0.96 µM

molecule: C[C@@H]1ON=C(C(=O)O)[C@@H]1C[C@H](N)C(=O)O (racemic)
Ki: 18 µM

molecule: N[C@H](C[C@H]1CC(C(=O)O)=NO1)C(=O)O (racemic)
Ki: 0.21 µM

molecule: C[C@H]1C(C(=O)O)=NO[C@H]1C[C@H](N)C(=O)O (racemic)
Ki: 5.1 µM

molecule: C[C@@H]1ON=C(C(=O)O)[C@@H]1C[C@@H](N)C(=O)O (racemic)
Ki: 60 µM

--- query ---
Ki recorded for this molecule, C[C@H]1C(C(=O)O)=NO[C@H]1C[C@@H](N)C(=O)O (racemic) , is 3 µM

###

Examples of compounds with documented pKi follow.
# assayOverview: Displacement of [3H]AMPA from AMPA receptor in Sprague-Dawley rat brain synaptic membrane after 30 mins by scintillation counting
pKi: −log10 of the molar value.

pKi recorded for this compound, C[C@@H]1ON=C(C(=O)O)[C@@H]1C[C@@H](N)C(=O)O (racemic) , is < 4.00

pKi recorded for this compound, Cc1onc(C(=O)O)c1CC(N)C(=O)O (racemic) , is 7.70

pKi recorded for this compound, N[C@@H](C[C@H]1CC(C(=O)O)=NO1)C(=O)O (racemic) , is < 4.00

pKi recorded for this compound, C[C@@H]1ON=C(C(=O)O)[C@@H]1C[C@H](N)C(=O)O (racemic) , is < 4.00

pKi recorded for this compound, N[C@H](C[C@H]1CC(C(=O)O)=NO1)C(=O)O (racemic) , is < 4.00

###

# assayOverview: Displacement of [3H]KAIN from kainate receptor in Sprague-Dawley rat brain synaptic membrane after 60 mins by scintillation counting
pKi: −log10 of the molar value.
observationType: pKi

Worked examples follow.
compound: C[C@@H]1ON=C(C(=O)O)[C@@H]1C[C@H](N)C(=O)O (racemic)
pKi: < 4.00

compound: Cc1onc(C(=O)O)c1CC(N)C(=O)O (racemic)
pKi: 5.20

compound: C[C@H]1C(C(=O)O)=NO[C@H]1C[C@@H](N)C(=O)O (racemic)
pKi: < 4.00

compound: N[C@H](C[C@H]1CC(C(=O)O)=NO1)C(=O)O (racemic)
pKi: < 4.00

pKi recorded for this compound, C[C@H]1C(C(=O)O)=NO[C@H]1C[C@H](N)C(=O)O (racemic) , is 4.25

pKi recorded for this compound, C[C@@H]1ON=C(C(=O)O)[C@@H]1C[C@@H](N)C(=O)O (racemic) , is < 4.00

pKi recorded for this compound, N[C@@H](C[C@H]1CC(C(=O)O)=NO1)C(=O)O (racemic) , is < 4.00

pKi recorded for this compound, N[C@@]1(C(=O)O)C[C@@H]2ON=C(C(=O)O)[C@@H]2C1 (racemic) , is < 4.00

###

# targetDesc: Glutamate NMDA receptor
# assayOverview: Displacement of [3H]CPP from NMDA receptor in Sprague-Dawley rat brain synaptic membrane after 60 mins by scintillation counting
observationType: Ki

Ki recorded for this compound, Cc1onc(C(=O)O)c1CC(N)C(=O)O (racemic) , is > 100 µM

###

# assayOverview: Displacement of [3H]AMPA from AMPA receptor in Sprague-Dawley rat brain synaptic membrane after 30 mins by scintillation counting
Examples of compounds with documented pKi follow.
# reply with the number alone; pKi is -log10 of concentration in mol/L

compound: C[C@H]1C(C(=O)O)=NO[C@H]1C[C@H](N)C(=O)O (racemic)
reading: 4.51

pKi recorded for this compound, C[C@H]1C(C(=O)O)=NO[C@H]1C[C@@H](N)C(=O)O (racemic) , is 5.39
